test system: 349418-098-R tumor spheroid viability; test: Anticancer human tumor 349418-098-R patient-derived lung adenocarcinoma cell line growth inhibition; conditions: second compound 0.0949 µM; first compound 1 µM; active compounds read low; spheroids with HUVEC and MSC;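 note: spheroids exposed to compound for 7 days before measurement; percent of vehicle control viability with 100% = DMSO-treated spheroids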
Each entry below lists one item and its recorded viability, T/C value.
attributeMeasured: viability, T/C (%)

compound	attributeMeasured	recordedValue
[2H]c1nc(C)nc([2H])c1-c1cc(NC[C@@H](C)c2cccc3c(C(=O)NC)ccnc23)ncn1 + CC[C@@]1(O)C(=O)OCc2c1cc1n(c2=O)Cc2cc3c(CN(C)C)c(O)ccc3nc2-1	viability, T/C	13.1
CC1COCCN1c1cc(-c2ccnn2C)c2ccnc(-c3ccn[nH]3)c2n1 (stereo unspecified) + CC[C@@]1(O)C(=O)OCc2c1cc1n(c2=O)Cc2cc3c(CN(C)C)c(O)ccc3nc2-1	viability, T/C	6.27
COc1cc(C)[nH]c(=O)c1CN1CCc2c(Cl)cc(C(OC)C3COC3)c(Cl)c2C1=O (stereo unspecified) + CC[C@@]1(O)C(=O)OCc2c1cc1n(c2=O)Cc2cc3c(CN(C)C)c(O)ccc3nc2-1	viability, T/C	16
CC(C)n1c(=O)n(C)c2cnc3cc(F)c(-c4ccc(OCCCN5CCCCC5)nc4)cc3c21 + CC[C@@]1(O)C(=O)OCc2c1cc1n(c2=O)Cc2cc3c(CN(C)C)c(O)ccc3nc2-1	viability, T/C	9.81
Cc1cc(C)c(CNC(=O)c2cc(-c3ccc(CN4CCOCC4)cc3)cc3c2cnn3C2CCCC2)c(=O)[nH]1 + CC[C@@]1(O)C(=O)OCc2c1cc1n(c2=O)Cc2cc3c(CN(C)C)c(O)ccc3nc2-1	viability, T/C	5.66
COc1ccc([C@@H](O)c2cc(-c3ncnc4cc(N5CCOCC5)ccc34)c(F)cc2Cl)nn1 + CC[C@@]1(O)C(=O)OCc2c1cc1n(c2=O)Cc2cc3c(CN(C)C)c(O)ccc3nc2-1	viability, T/C	13.7
